Values from paper PMC6661831

# SYSTEM UNDER TEST: Jack bean urease (Canavalia ensiformis, UniProt P07374)
# Construct: purchased Sigma Aldrich
# Sequence (P07374 whole entry, looked up): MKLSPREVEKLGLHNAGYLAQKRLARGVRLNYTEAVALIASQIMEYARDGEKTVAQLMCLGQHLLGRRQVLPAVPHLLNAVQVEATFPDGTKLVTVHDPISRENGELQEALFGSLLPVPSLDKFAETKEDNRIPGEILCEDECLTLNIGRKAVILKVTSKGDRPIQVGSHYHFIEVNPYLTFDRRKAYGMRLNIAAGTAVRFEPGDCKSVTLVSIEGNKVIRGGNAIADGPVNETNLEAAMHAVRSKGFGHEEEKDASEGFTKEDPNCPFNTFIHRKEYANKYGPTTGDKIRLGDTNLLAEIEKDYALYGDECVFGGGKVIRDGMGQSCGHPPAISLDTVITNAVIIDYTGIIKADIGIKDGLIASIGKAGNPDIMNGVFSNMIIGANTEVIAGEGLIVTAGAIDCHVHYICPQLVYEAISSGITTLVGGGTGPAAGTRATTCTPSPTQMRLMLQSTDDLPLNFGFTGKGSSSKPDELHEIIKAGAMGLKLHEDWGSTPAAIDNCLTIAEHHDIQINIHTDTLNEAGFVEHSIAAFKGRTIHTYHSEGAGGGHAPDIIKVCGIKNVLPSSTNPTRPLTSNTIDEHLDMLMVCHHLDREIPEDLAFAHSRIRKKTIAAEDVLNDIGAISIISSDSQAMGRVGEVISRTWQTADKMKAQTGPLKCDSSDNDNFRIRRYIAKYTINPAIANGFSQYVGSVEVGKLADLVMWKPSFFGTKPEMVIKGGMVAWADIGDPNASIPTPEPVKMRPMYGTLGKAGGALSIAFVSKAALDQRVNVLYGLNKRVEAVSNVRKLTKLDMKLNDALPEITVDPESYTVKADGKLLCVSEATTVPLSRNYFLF
# MEASUREMENT PROTOCOL: biochemical
# MEASUREMENT CONDITIONS: Jack bean urease, indophenol method, pH 8.2, mean SEM; read-out: IC50 urease inhibition
ENDPOINT: IC50 (µM)
Write the value in µM as a bare number.

Look at this compound and give its reported IC50. NC(N)=S [Thiourea, reference compound]
22.8

###

# SYSTEM UNDER TEST: Jack bean urease (Canavalia ensiformis)
# Construct: purchased Sigma Aldrich
# MEASUREMENT PROTOCOL: biochemical
ENDPOINT: pIC50
Remember, pIC50 is on a log scale: it is -log10 of the molar concentration.

Please state recorded pIC50 (tested on Jack bean urease (Canavalia ensiformis)) of NC(=S)N/N=c1\c(O)c(-c2ccc(O)cc2O)oc2cc(O)cc(O)c12
4.75

Also Oc1ccc(-c2oc3cc(O)cc(O)c3/c(=N/Nc3ccccc3)c2O)c(O)c1 , if possible.
4.75

Can you check O=c1c(O)c(-c2ccc(O)cc2O)oc2cc(O)cc(O)c12 [Morin, 3,5,7, 2′, 4′-pentahydroxyflavone] next?
4.66

Next compound up: Oc1ccc(-c2oc3cc(O)cc(O)c3/c(=N/C(=S)NNc3ccccc3)c2O)c(O)c1
4.72

Next: Oc1ccc(-c2oc3cc(O)cc(O)c3c(=NC(=S)Nc3ccccc3)c2O)c(O)c1
4.90

###

I'd appreciate it if you could supply IC50 values for the items below.
# SYSTEM UNDER TEST: Jack bean urease (Canavalia ensiformis, UniProt P07374)
# Construct: purchased Sigma Aldrich
# MEASUREMENT PROTOCOL: biochemical
# MEASUREMENT CONDITIONS: read-out: IC50 urease inhibition; Jack bean urease, indophenol method, pH 8.2, mean SEM
// note: answer is a bare numeric in µM

Need IC50 of O=[N+]([O-])c1ccccc1NC(=S)N=c1c(O)c(-c2ccc(O)cc2O)oc2cc(O)cc(O)c12 , thanks.
19.5

Would you mind doing O=[N+]([O-])c1ccc(NC(=S)N=c2c(O)c(-c3ccc(O)cc3O)oc3cc(O)cc(O)c23)cc1 as well?
20.2

Item: O=[N+]([O-])c1cccc(NC(=S)N=c2c(O)c(-c3ccc(O)cc3O)oc3cc(O)cc(O)c23)c1
20.4
